Quick reference: IC50 of the listed items.
# testTarget: mTORC1 (mTOR/GbL/Raptor) (Homo sapiens, UniProt P42345)
# protocolNotes: mTOR/GbL/Raptor (mTORC1) ELISA Assay
# Type: biochemical
# condition: 0.2 nM mTORC1, 10 μM ATP, 50 nM NHis-tagged 4E-BP1; phosphorylation of 4E-BP1; read-out: IC50

# compound, testTarget, IC50
records = [
    ("Cc1nc2ccc(-c3ccc4c(c3)CN(C(=O)N3CCCCC3c3cc(F)cc(Cl)c3)CCO4)cc2[nH]1 (stereo not shown)", "mTORC1 (mTOR/GbL/Raptor) (Homo sapiens, UniProt P42345)", "≤ 50 nM"),
    ("CCC1CCC(C)N(C(=O)N2CCOc3ccc(-c4ccc5nc(C)[nH]c5c4)cc3C2)C1 (stereo not shown)", "mTORC1 (mTOR/GbL/Raptor) (Homo sapiens, UniProt P42345)", "50 to 250 nM"),
    ("Nc1nc2ncc(-c3ccc4c(c3)CN(C(=O)N3CCC(CF)CC3)CCO4)cc2[nH]1", "mTORC1 (mTOR/GbL/Raptor) (Homo sapiens, UniProt P42345)", "≤ 50 nM"),
    ("Cc1nc2ccc(-c3ccc4c(c3)CN(C(=O)N3CCN(c5ccccc5F)CC3)CCO4)cc2[nH]1", "mTORC1 (mTOR/GbL/Raptor) (Homo sapiens, UniProt P42345)", "700 to 2600 nM"),
]
